Measured values drawn from patent US12011444B2 for this set.

# TARGET_OR_TEST_SYSTEM: UniProt:P35408
# EXPERIMENT_SUMMARY: hEP4 b-arrestin assay (PathHunter HEK 293 PTGER4 b-arrestin cells)
# Format: cell-based
# RUN_CONDITIONS: antagonistic activity on hEP4; mean where measured multiple times
REPORTED_PROPERTY: pIC50
The read-out pIC50 is expressed as -log10 of concentration in moles per litre.

Q. Any idea what pIC50 came out for `CCOc1cc(-c2cc(NCCn3c(C)cc4c(Cl)cccc43)ncn2)sc1C(=O)O` on UniProt:P35408?
A. 7.82

Q. Another molecule to check: `COc1ccc(F)c2c1cc(C)n2CCNc1cc(-c2ccc(CO)c(Cl)c2)ncn1`
A. 7.05

Q. Another molecule to check: `CCCc1cc(-c2cc(NCCn3c(C)cc4cc(Cl)cc(F)c43)ncn2)ccc1C(=O)O`
A. 6.23

Q. Another molecule to check: `CNc1cc(-c2cc(NCCn3c(C)cc4c(F)ccc(OC)c43)ncn2)ccc1C(=O)O`
A. 6.18

Q. Another molecule to check: `CCOc1cc(-c2cc(NCCn3c(C)cc4c(F)c(F)cc(Cl)c43)ncn2)ccc1C(=O)O`
A. 6.00

Q. Another molecule to check: `CCNc1cc(-c2cc(NCCn3c(C)cc4c(F)ccc(F)c43)ncn2)ccc1C(=O)O`
A. 6.55

Q. Another molecule to check: `CSc1cc(-c2cc(NCCn3c(C)cc4c(C)ccc(Cl)c43)ncn2)ccc1C(=O)O`
A. 6.42

Q. Another molecule to check: `Cc1ccc(F)c2c1cc(C)n2CCNc1cc(-c2ccc(C(N)=O)cc2)ncn1`
A. 6.21

* * *

# TARGET_OR_TEST_SYSTEM: PTRGER4 (EP4) (Homo sapiens (Human))
# Sequence (P35408 whole entry, looked up): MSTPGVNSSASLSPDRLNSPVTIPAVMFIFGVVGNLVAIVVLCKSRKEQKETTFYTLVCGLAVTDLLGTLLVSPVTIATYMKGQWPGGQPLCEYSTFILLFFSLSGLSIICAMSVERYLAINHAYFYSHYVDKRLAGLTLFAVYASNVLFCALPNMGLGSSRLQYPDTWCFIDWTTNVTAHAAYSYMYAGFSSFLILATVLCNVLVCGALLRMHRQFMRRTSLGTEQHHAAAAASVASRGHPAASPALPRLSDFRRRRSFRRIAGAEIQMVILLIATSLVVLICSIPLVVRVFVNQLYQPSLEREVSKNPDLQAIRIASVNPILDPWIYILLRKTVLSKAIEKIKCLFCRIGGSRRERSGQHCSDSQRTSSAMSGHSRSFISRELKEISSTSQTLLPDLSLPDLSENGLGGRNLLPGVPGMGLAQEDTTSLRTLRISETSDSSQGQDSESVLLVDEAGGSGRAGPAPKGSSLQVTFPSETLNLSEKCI
# EXPERIMENT_SUMMARY: hEP4 b-arrestin assay (PathHunter HEK 293 PTGER4 b-arrestin cells)
# Type: cell-based
# RUN_CONDITIONS: antagonistic activity on hEP4; mean where measured multiple times
REPORTED_PROPERTY: pIC50
The read-out pIC50 is expressed as -log10 of concentration in moles per litre.

Q. What value of pIC50 has been reported for the following compound? `Cc1ccc(F)c2c1cc(C)n2CCNc1cc(-c2ccc(NC(N)=O)cc2)ncn1`
A. 6.41

Q. Another compound to check: `Cc1cc2c(Cl)ccc(Cl)c2n1CCNc1cc(-c2ccc(C(=O)O)c(SCC(C)C)c2)ncn1`
A. 6.00

Q. Another compound to check: `CNc1cc(-c2cc(NCCn3c(C)cc4c(F)ccc(F)c43)ncn2)ccc1C(=O)O`
A. 6.76

Q. Another compound to check: `Cc1cc(F)c(F)c2c1cc(C)n2CCNc1cc(-c2ccc(-c3ncno3)cc2)ncn1`
A. 6.70

* * *

Below are log10 of IC50 values measured for EP2 (Homo sapiens (Human)).
Could you please treat all values as log10 of IC50 in µM?

Q. What value of log10 of IC50 has been reported for the following compound? `CCNc1cc(-c2cc(NCCn3c(C)cc4c(OC)ccc(F)c43)ncn2)cc(F)c1C(=O)O`
A. -2.40

Q. Another compound to check: `Cc1nnc(-c2ccc(-c3cc(NCCn4c(C)cc5c(C)ccc(F)c54)ncn3)cc2)o1`
A. -0.99

Q. Another compound to check: `COc1ccc(F)c2c1cc(C)n2CCNc1cc(-c2ccc(-c3nnc(C)o3)cc2)ncn1`
A. -1.48

Q. Another compound to check: `CCCc1cc(-c2cc(NCCn3c(C)cc4c(OC)cc(Cl)cc43)ncn2)cc(Cl)c1C(=O)O`
A. -1.96

Q. Another compound to check: `CCCCOc1cc(-c2cc(NCCn3c(C)cc4c(OC)cc(F)cc43)ncn2)ccc1C(=O)O`
A. -2.40

Q. Another compound to check: `Cc1cc(F)cc2c1cc(C)n2CCNc1cc(-c2ccc3ccncc3c2)ncn1`
A. -1.44

Q. Another compound to check: `CCOc1cc(-c2cc(NCCn3c(C)cc4c(OC)cc(F)cc43)nc(C)n2)ccc1C(=O)O`
A. -1.20

Q. Another compound to check: `Cc1cc2c(Cl)cc(Cl)cc2n1CCNc1cc(-c2ccc(-c3nc(C(=O)O)cs3)cc2)ncn1`
A. -2.30

Q. Another compound to check: `Cc1cc2ccccc2n1CCNc1cc(-c2ccc(-c3nnn[nH]3)s2)ncn1`
A. -2.70

Q. Another compound to check: `CCOc1cc(-c2cc(NCCn3c(C)cc4c(OC)ccc(F)c43)ncn2)ccc1CNC1CC1`
A. -0.27

Q. Another compound to check: `COc1cc(F)cc2c1cc(C)n2CCNc1cc(-c2cc(Cl)c(C(=O)O)c(OCC(C)C)c2)ncn1`
A. -2.15

Q. Another compound to check: `COc1cc(-c2cc(NCCn3c(C)cc4c(F)ccc(F)c43)ncn2)ccc1-c1nnn[nH]1`
A. -2.52

Q. Another compound to check: `COc1cc(F)cc2c1cc(C)n2CCNc1cc(-c2ccc(C(=O)O)c(CC(C)C)c2)ncn1`
A. -1.68

Q. Another compound to check: `CCOc1cc(-c2cc(NCCn3c(C)cc4c(Br)cccc43)ncn2)ccc1C(=O)O`
A. -2.22

Q. Another compound to check: `COc1ccc(F)c2c1cc(C)n2CCNc1cc(-c2ccc3c(ccn3C)c2)ncn1`
A. -2.00

Q. Another compound to check: `Cc1ccc(Cl)c2c1cc(C)n2CCNc1cc(-c2ccc(C(=O)O)c(SC3CCC3)c2)ncn1`
A. -1.47
